- target-or-system: Concanavalin-A (Canavalia ensiformis) (UniProt P02866)
- Sequence (P02866 whole entry, looked up): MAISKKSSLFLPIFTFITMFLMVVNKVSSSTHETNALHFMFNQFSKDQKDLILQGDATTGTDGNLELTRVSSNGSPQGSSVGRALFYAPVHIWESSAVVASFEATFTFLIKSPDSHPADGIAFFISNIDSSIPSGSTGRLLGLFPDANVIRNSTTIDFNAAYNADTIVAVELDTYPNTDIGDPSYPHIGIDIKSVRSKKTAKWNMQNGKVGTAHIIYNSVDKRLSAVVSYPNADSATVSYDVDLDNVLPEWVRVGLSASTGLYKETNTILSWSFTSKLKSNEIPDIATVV
- protocol-description: compounds binding concanavalin A lectin – biochemical, small-molecule microarray, Alexa647 label, 635 nm, artefact control for SMM control protein annotation, primary screen (AID 1127);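 also: z combines 667 nm emission intensity with signal-to-noise across three replicate slides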
- stated-conditions: ConA-A647 binding fluorescence, higher = more signal
assay-readout: composite z-score
Answers are plain numbers.

Reference set (6 entries):
>  <compound>
CCOC(=O)C[C@H]1[C@H](OC(=O)c2ccc(-c3ccccc3)cc2)[C@@H](NC(=O)c2ccccc2)c2cc(OCCCO)ccc2N1C(=O)Cc1ccc(OC)cc1

>  <target-or-system>
Concanavalin-A (Canavalia ensiformis) (UniProt P02866)

>  <composite z-score>
-0.769

$$$$
>  <compound>
CCCNC(=O)[C@@H]1c2ccccc2C(=O)N(Cc2ccccc2OC)[C@H]1c1ccc(CO)cc1

>  <target-or-system>
Concanavalin-A (Canavalia ensiformis) (UniProt P02866)

>  <composite z-score>
0.748

$$$$
>  <compound>
COCCOC(=O)N1C(=O)[C@@]2(c3cc(C#CC4=CCCCC4)ccc31)[C@H](c1ccc(OCCO)cc1)N1[C@H](c3ccccc3)[C@H](c3ccccc3)OC(=O)[C@H]1[C@@H]2C(=O)N1CCc2cc(OC)c(OC)cc2C1

>  <target-or-system>
Concanavalin-A (Canavalia ensiformis) (UniProt P02866)

>  <composite z-score>
0.922

$$$$
>  <compound>
OCC1C=C(/C=C/c2ccccc2)CN1Cc1ccccc1Br (stereo unspecified)

>  <target-or-system>
Concanavalin-A (Canavalia ensiformis) (UniProt P02866)

>  <composite z-score>
0.94

$$$$
>  <compound>
CCCC[C@@H]1C[C@H]1[C@@H](NC(=O)c1cccnc1)c1ccc(Cl)cc1

>  <target-or-system>
Concanavalin-A (Canavalia ensiformis) (UniProt P02866)

>  <composite z-score>
-2.03

$$$$
>  <compound>
NC(=O)NCC#Cc1ccc2c(c1)[C@]1(C(=O)N2)[C@H](C(=O)O)[C@H]2C(=O)O[C@H](c3ccccc3)[C@H](c3ccccc3)N2[C@@H]1c1ccc(O)cc1

>  <target-or-system>
Concanavalin-A (Canavalia ensiformis) (UniProt P02866)

>  <composite z-score>
0.888

$$$$

List composite z-score for every entry below, keeping the order given.
1. CC(=CC1CCCCC1)[C@@H](NC(=O)c1cccnc1)c1ccc(-c2ccccc2)cc1
2. COc1ccc(CCNC(=O)[C@@]2(C)c3ccccc3C(=O)N(c3ccc(C)cn3)[C@H]2c2ccc(CO)cc2)cc1
3. COc1cc(CO)cc(I)c1O[C@H]1C=C(C(=O)NCCO)C[C@@H](N(C(=O)c2cc3ccccc3oc2=O)C2CCCCCC2)[C@@H]1O
4. COC(=O)[C@@]1(Cc2ccc(OC)cc2)[C@H]2c3cc(C(=O)N4CCCC4)n(CCSCCO)c3C[C@H]2CN1C(=O)c1ccccc1
5. O=C1O[C@H](c2ccccc2)[C@H](c2ccccc2)N2[C@H]1[C@@H](C(=O)NC[C@H](O)c1ccccc1)[C@]1(C(=O)Nc3ccccc31)[C@H]2c1ccc(O)cc1
6. Cc1ccc(S[C@]2(C(=O)O)CC(=O)N(C(C)C)[C@@H]2c2ccc(CO)cc2)cc1
7. CCOC(=O)C1=C[C@@H](C(C)C)N(S(=O)(=O)c2ccc(C)cc2)[C@H]1c1ccccc1F
8. C=CC[C@]1(C(=O)NCc2ccccc2)N=C(c2ccc(OCCCO)cc2)O[C@H]1c1ccccc1CN=[N+]=[N-]

result:
1: 0.132; 2: -0.699; 3: 0.66; 4: 0.941; 5: 1.01; 6: 0.394; 7: 1.17; 8: 0.79

List composite z-score for every entry below, keeping the order given.
1. CC(C)C(=C=CC[C@H](O)c1ccc(CO)o1)CCO
2. CCOC(=O)C1=CC[C@@H](c2ccccc2)N(S(=O)(=O)c2ccc(C)cc2)[C@H]1c1ccc(CC)cc1
3. O=C1NC(=O)C2C1C=CC(C(O)c1ccc(-c3ccccc3)s1)N2Nc1ccc(Cl)cc1Cl (stereo unspecified)
4. COC(=O)C(CC#Cc1ccc2c(c1)[C@]1(C(=O)N2)[C@H](c2ccccc2OCCO)N2[C@H](c3ccccc3)[C@H](c3ccccc3)OC(=O)[C@H]2[C@@H]1C(=O)O)C(=O)OC

result:
1. 0.828
2. 1.11
3. 1.06
4. 1.09

====

- target-or-system: Torsin-1A (Homo sapiens) (UniProt O14656)
- Sequence (O14656 whole entry, looked up): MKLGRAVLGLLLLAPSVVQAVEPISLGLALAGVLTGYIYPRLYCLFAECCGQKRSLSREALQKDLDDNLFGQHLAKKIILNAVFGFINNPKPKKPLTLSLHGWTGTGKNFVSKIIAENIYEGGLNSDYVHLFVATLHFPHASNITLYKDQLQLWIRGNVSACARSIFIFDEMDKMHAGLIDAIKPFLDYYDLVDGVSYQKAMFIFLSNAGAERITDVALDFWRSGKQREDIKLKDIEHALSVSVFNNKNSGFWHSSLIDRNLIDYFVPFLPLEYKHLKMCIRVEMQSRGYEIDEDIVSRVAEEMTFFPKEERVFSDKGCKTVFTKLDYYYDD
- protocol-description: torsin A mutant lysate binding on microarrays – cell lysate, small-molecule microarray, COS7 lysate, 635/667 nm fluorescence, primary screen (AID 1150);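 also: score pools 667 nm emission and signal to noise measuring lysate protein binding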
- stated-conditions: COS7 hTOR1A mutant lysate, 635 nm fluorescence, higher = more signal
Assignment: determine reported composite z-score for the given molecules.
Answers are plain numbers.

>  <molecule>
COc1ccccc1CN1C(=O)c2ccccc2[C@@]2(Cc3ccccc3N(CCCN(C)C)C2=O)[C@@H]1c1ccc(CO)cc1

>  <experimental-result>
0.0265

$$$$

List composite z-score for every entry below, keeping the order given.
1. CCCCCCCCCCC(O)C1C=CC2C(=O)NC(=O)C2N1Nc1ccc(Cl)cc1Cl (stereo not drawn)
2. CCCCCN1CC=CC23O[C@@H]4C=CCOC(=O)[C@@H]4[C@H]2C(=O)N(C(C)CO)[C@@H]3C1=O (stereo partly drawn)

result:
1. 0.0193
2. -0.979

====

- protocol-description: small molecules captured by biotinylated probe aFST – biochemical, small-molecule microarray, fluorescence 635/667, stem cell growth factor project, primary screen (AID 1086);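 also: score merges 667 nm fluorescence with signal-to-noise of each printed compound spot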
- stated-conditions: higher = more signal
assay-readout: composite z-score
One number for each entry.

List composite z-score for every entry below, keeping the order given.
1. O=C(O)[C@@]1(CCS(=O)(=O)c2ccccc2)N=C(c2ccc(OCCCO)cc2)O[C@H]1c1ccccc1
2. O=C1O[C@H](c2ccccc2)[C@H](c2ccccc2)N2[C@H]1[C@@H](C(=O)NC[C@H](O)c1ccccc1)[C@]1(C(=O)Nc3ccc(C#CC4=CCCCC4)cc31)[C@H]2c1ccccc1OCCO
3. C[N+](C)(C)CCCCCCNC(=O)[C@H]1C[C@H]2C(=O)N[C@@H](Cc3ccccc3)C(=O)N2[C@H]1c1cccc(OCCO)c1
4. COc1cc2c(cc1O)C(c1cccs1)N(Cc1cccc(OC(F)(F)F)c1)CC2 (stereo not given)
5. O=C1[C@@]23C=C(Br)[C@H](C[C@@H]2COC3)[C@]12CO2

result:
1: 0.38; 2: 0.599; 3: -0.0975; 4: -0.146; 5: -0.541

====

Assignment: determine reported composite z-score for the given compounds.
- protocol-description: probe aEGFR binding to arrayed compounds – biochemical, biotinylated probe, 635/667 nm fluorescence, primary screen (AID 1097);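 also: probe is a biotinylated anti-EGFR antibody binding compounds printed on slides; score combines fluorescence near 667 nm and signal to noise of each spot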
- stated-conditions: small-molecule microarray, higher = more signal
One number for each entry.

>  <compound>
OB1C=CCC(CCc2ccccc2)O1 (configuration not stated)

>  <composite z-score>
-0.211

$$$$
>  <compound>
NC(=O)[C@@H]1[C@H]2C(=O)O[C@H](c3ccccc3)[C@H](c3ccccc3)N2[C@H](c2ccc(OCCO)cc2)[C@@]12C(=O)Nc1ccc(C#CC3=CCCCC3)cc12

>  <composite z-score>
-0.0343

$$$$
>  <compound>
CO[C@H]1O[C@H](CO)[C@@H](OC(=O)Nc2cccc(F)c2)[C@H](OC(=O)Nc2ccccc2)[C@H]1OC(=O)Nc1ccccc1

>  <composite z-score>
0.0778

$$$$
>  <compound>
O=C1OCC=C[C@H]2OC34C=CCN(CCN5CCOCC5)C(=O)[C@H]3N(CCO)C(=O)[C@@H]4[C@@H]12 (some centres not stated)

>  <composite z-score>
-0.139

$$$$
>  <compound>
O=C1C2C=CC(C(O)C=Cc3ccc([N+](=O)[O-])cc3)N(Nc3ccccc3F)C2C(=O)N1c1ccccc1 (configuration not stated)

>  <composite z-score>
0.293

$$$$

List composite z-score for every entry below, keeping the order given.
1. C=C(CCCC)/C(=C/C[C@@H](OC(C)=O)c1ccccc1OCCO)c1cc(C(=O)OC)ccc1OC
2. CCOC(=O)C1=CCC(c2ccc(F)cc2)N(S(=O)(=O)c2ccc(C)cc2)C1 (configuration not stated)

result:
1. -0.185
2. -0.0839

====

- protocol-description: change in splice reporter luminescence, either direction, cell-based, HEK293, spliceosome inhibition project, primary screen (AID 1101);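 also: HEK293 cells carrying a splicing-competent luciferase reporter gene; test concentration not given here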
- stated-conditions: HEK293 splicing luciferase reporter, 24 h, higher = more signal, called active from +8 up or from −8 down
Hi, to clarify the labels: 1 (yes) covers z-score from -0.4 upward, 0 (no) covers anything below -0.4.

>  <molecule>
COCCCNC(=O)[C@@]1(Sc2ccc(C)cc2)CC(=O)N(Cc2ccccc2Cl)[C@@H]1c1ccc(CO)cc1

>  <qualitative-label>
0 (no)

$$$$
>  <molecule>
COc1ccc([C@H]2C[C@H]3C(I)=C[C@@H]2C(=O)[C@]32CO2)cc1

>  <qualitative-label>
0 (no)

$$$$
>  <molecule>
CC(CO)N1C(=O)[C@@H]2C3C(=O)OCCC/C=C\[C@H]3OC23C=CCN(CCN2CCOCC2)C(=O)[C@@H]13 (stereo not given in full)

>  <qualitative-label>
0 (no)

$$$$
>  <molecule>
CCCCN1CC=CC23O[C@@H]4C=CCCOC(=O)C4[C@H]2C(=O)N(CCCCCO)[C@@H]3C1=O (stereo not given in full)

>  <qualitative-label>
1 (yes)

$$$$

query: In plain terms: is recorded z-score at least -0.4 for [N-]=[N+]=Nc1ccccc1C[C@]1(C(=O)N2CCCCC2)COC(c2ccc(OCCCO)cc2)=N1 ?
result: 0 (no)

query: In plain terms: is recorded z-score at least -0.4 for O=C1[C@@]23C=C(Br)[C@H](C[C@@H]2COC3)[C@]12CO2 ?
result: 1 (yes)
